- System: HepG2-CANX-COX4
- ASSAY METHOD TEXT: lowest phenotypically active concentration; higher = less potent
- STUDY CONDITIONS: treatment time: 24 h
Assign lowest phenotypically active concentration to each entry below.
Number in µM, nothing else.

Look up lowest phenotypically active concentration: `C=CC(=O)N1CCC[C@@H](n2nc(-c3cccc(C(=O)Nc4ccc(C(C)C)c(C)c4)c3)c3c(N)ncnc32)C1`
1

Same for Nc1ncnc2c1nc(Cl)n2C1O[C@H](CO)[C@@H](O)[C@H]1O (some centres not stated) [8-Chloroadenosine]
3

Same for `CN(C)CC(=O)N1CCC[C@@H](n2nc(-c3ccc(Oc4ccccc4)cc3)c3c(N)ncnc32)C1`
3

----------
- Test system: HepG2-ACTB-RAB5A
- ASSAY METHOD TEXT: lowest phenotypically active concentration; higher = less potent
- STUDY CONDITIONS: treatment time: 24 h
Counter-ions that a name gives are not always drawn.
READOUT: lowest phenotypically active concentration (µM)
Number in µM, nothing else.

Look up lowest phenotypically active concentration: `CN(C)CCCNc1c2c(=O)n(C)c(=O)nc-2n(C)c2ccccc12`
9

Same for `COc1cc(O)cc(O)c1C(=O)/C=C/c1ccccc1`
9

Same for `O=C(CCCCCCC(=O)Nc1ccccc1)NO`
1

Same for `Nc1cccc(-c2cc3c(Oc4cccc(O)c4)ncnc3[nH]2)c1`
1

Same for `CN[C@H]1CC[C@@H](c2ccc(Cl)c(Cl)c2)c2ccccc21`
3

Same for Fc1ccccc1CNCc1ccc(-c2ccnc3[nH]ccc23)cc1 [OXA 06 dihydrochloride]
1

Same for `CC(C)n1nc(-c2cc3cc(O)ccc3[nH]2)c2c(N)ncnc21`
1

Same for `CCC(=O)N1CCOc2c(cc(-c3ccc(OC)c(OC)c3)cc2OC[C@H]2CCCN(C)C2)C1`
9

Same for `COc1cc(N2CCN(C)CC2)ccc1Nc1nccc(-c2cn(C)c3cnccc23)n1`
3

Same for `C#Cc1cccc(Nc2ncnc3cc(OCCOC)c(OCCOC)cc23)c1`
3

Same for `COCC(=O)O[C@]1(CCN(C)CCCc2nc3ccccc3[nH]2)CCc2cc(F)ccc2[C@@H]1C(C)C`
9

Same for CC(=O)NC1=NN(C(C)=O)C(C)(c2ccccc2)S1 (stereo not drawn)
9

Same for `CC[C@H](CO)Nc1nc(NCc2ccccc2)c2ncn(C(C)C)c2n1`
9

Same for Cc1cc(Nc2cc(C)c(C#N)c(NC(C)CCCC(C)(C)O)n2)n[nH]1 (stereo not drawn) [TC-A 2317 hydrochloride]
1

Same for `C=CC(=O)Nc1cccc(Nc2nc(Nc3ccc(OCCOC)cc3)ncc2F)c1`
3

Same for O=C(CCCCCCC(=O)Nc1cccnc1)NO [Pyroxamide]
3

----------
- System: HepG2-GM130-SQSTM1
- ASSAY METHOD TEXT: phenotypically active (imaging signature differs from DMSO and reproducible) at any of 0.3-9 uM (binary (1 = active, 0 = inactive)); higher = active
- STUDY CONDITIONS: treatment time: 24 h
READOUT: phenotypically active

Look up phenotypically active: `Nc1cc(N)c(N)cc1N`
0 (inactive)

Same for `CC(=O)O[C@@H]1C[C@H]2C(C)(C)C(=O)C=C[C@]2(C)[C@H]2CC[C@@]3(C)[C@H](c4ccoc4)OC(=O)[C@H]4O[C@]43[C@@]21C`
1 (active)

Same for `O=S(=O)(c1cccc2cnccc12)N1CCCNCC1`
1 (active)

Same for `COc1c(C=O)c(O)cc2c1C(=O)c1ccccc1C2=O`
1 (active)

Same for `COC(=O)c1ccc(N2CCN(C)CC2)c(NC(=O)c2cccc(OC)c2)c1`
0 (inactive)

Same for Clc1ccc(C(c2ccc(Cl)cc2)[n+]2ccn(CC(OCc3ccc(Cl)cc3Cl)c3ccc(Cl)cc3Cl)c2)cc1 (centres undefined) [Calmidazolium chloride]
0 (inactive)

Same for `CNC(=O)c1ccc(C)c(-n2c(C)cc(OCc3ccc(F)cc3F)c(Br)c2=O)c1`
0 (inactive)

Same for `COc1ccc(-c2cc(=O)c3c(O)cc(O)cc3o2)cc1O`
0 (inactive)

Same for `Cc1ccc(-n2nc(C(C)(C)C)cc2NC(=O)Nc2ccc(OCCN3CCOCC3)c3ccccc23)cc1`
1 (active)
